Item-by-item account of IC50
Target: Pol theta (1-899) (Homo sapiens, UniProt O75417)
Construct: Pol theta (1-899) (5 nM) in assay buffer
Sequence (O75417 1-899): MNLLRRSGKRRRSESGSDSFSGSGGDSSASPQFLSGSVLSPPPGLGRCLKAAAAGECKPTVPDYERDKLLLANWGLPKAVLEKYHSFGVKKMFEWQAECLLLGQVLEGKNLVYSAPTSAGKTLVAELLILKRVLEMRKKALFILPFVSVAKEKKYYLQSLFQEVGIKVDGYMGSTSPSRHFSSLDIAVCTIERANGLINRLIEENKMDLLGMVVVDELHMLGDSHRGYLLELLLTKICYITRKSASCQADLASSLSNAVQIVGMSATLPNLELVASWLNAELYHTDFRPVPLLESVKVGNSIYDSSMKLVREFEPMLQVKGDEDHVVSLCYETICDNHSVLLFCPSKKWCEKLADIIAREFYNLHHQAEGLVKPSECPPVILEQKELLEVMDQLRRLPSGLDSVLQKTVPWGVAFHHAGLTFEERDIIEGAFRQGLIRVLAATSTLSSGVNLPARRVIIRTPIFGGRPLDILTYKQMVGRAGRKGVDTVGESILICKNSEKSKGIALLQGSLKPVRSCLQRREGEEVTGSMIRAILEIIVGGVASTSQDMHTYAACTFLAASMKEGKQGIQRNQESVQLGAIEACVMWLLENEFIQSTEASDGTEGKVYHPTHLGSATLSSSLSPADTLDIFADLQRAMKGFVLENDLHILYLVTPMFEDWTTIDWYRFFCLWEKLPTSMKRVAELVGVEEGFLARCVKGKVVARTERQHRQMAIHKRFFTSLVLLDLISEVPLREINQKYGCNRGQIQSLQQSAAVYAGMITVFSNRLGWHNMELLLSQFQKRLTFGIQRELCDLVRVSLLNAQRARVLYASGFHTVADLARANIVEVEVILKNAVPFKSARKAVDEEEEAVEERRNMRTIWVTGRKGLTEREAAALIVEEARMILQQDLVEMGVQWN
Assay: Pol theta ATPase activity, NADH oxidation-coupled enzymatic assay (ATPase NADH coupling: Standard Screening: hPolQ)
Format: biochemical
Conditions: Table 4; Pol theta (1-899) 5 nM, ATP, dT50 ssDNA

COc1cnc(Cl)cc1-c1cc(C)ncc1C(=O)Nc1nnc(OCC(F)F)s1	≤ 200 nM
CCOc1cnc(Cl)cc1-c1cc(C)ncc1C(=O)Nc1nnc(OC)s1	200 to 500 nM

Given COc1cnc(Cl)cc1-c1cc(C)ncc1C(=O)Nc1nnc(O[C@H]2CC[C@@H](O)C2)s1 [Example 46] , state its recorded IC50.
≤ 200 nM

Do the same for `COc1cnc(Cl)cc1-c1cc(C)ncc1C(=O)Nc1nnc(OC2COC2)s1` please
≤ 200 nM

Do the same for `COc1cnc(Cl)cc1-c1cc(C)ncc1C(=O)Nc1nnc(OC2CC2)s1` please
≤ 200 nM

Do the same for `C#CCOc1nnc(NC(=O)c2ccncc2-c2ccccc2OC)s1` please
≤ 200 nM

Do the same for `COc1nnc(NC(=O)c2cnc(C)cc2-c2cc(Cl)ccc2CO)s1` please
200 to 500 nM

Do the same for `CCc1cnc(Cl)cc1-c1cc(C)ncc1C(=O)Nc1nnc(OC)s1` please
≤ 200 nM

Do the same for COc1cnc(Cl)cc1-c1cc(C)ncc1C(=O)Nc1nnc(O[C@@H]2CC[C@H](O)C2)s1 (single isomer, unassigned) please
≤ 200 nM

Do the same for `COc1cnc(Cl)cc1-c1cc(C)ncc1C(=O)Nc1nnc(OCC(C)(F)F)s1` please
≤ 200 nM

Do the same for `COc1nnc(NC(=O)c2cnc(C)cc2-c2cc(C)ccc2OC)s1` please
≤ 200 nM

Do the same for `CCOc1nnc(NC(=O)c2cnc(C)cc2-c2cc(Cl)ncc2OC)s1` please
≤ 200 nM

====

Target: Pol theta (1-899) (Homo sapiens)
Construct: Pol theta (1-899) (5 nM) in assay buffer
Experiment: Pol theta ATPase activity, NADH oxidation-coupled enzymatic assay (ATPase NADH coupling: Standard Screening: hPolQ)
Format: biochemical
Conditions: Pol theta (1-899) 5 nM, NADH oxidation-coupled ATPase assay; compounds of Table 3
Item-by-item account of IC50

COc1nnc(NC(=O)c2cnc(C)cc2-c2ccc(P(C)(C)=O)cc2OC)s1	1000 to 10000 nM

Query the reported IC50 for Pol theta (1-899) (Homo sapiens); item: `CNC(=O)c1ccc(-c2cc(C)ncc2C(=O)Nc2nnc(OC)s2)cc1`
1000 to 10000 nM

Do the same for `COc1nnc(NC(=O)c2cnc(C)cc2-c2cccc(OC)c2F)s1` please
1000 to 10000 nM

Do the same for COc1cnc(Cl)cc1-c1cc(C)ncc1C(=O)Nc1nnc(OC2CCC23CCOC3)s1 (stereo not drawn) please
≤ 200 nM

====

Item-by-item account of IC50
Target: Pol theta (1-899) (Homo sapiens, UniProt O75417)
Construct: Pol theta (1-899) (5 nM) in assay buffer
Test: Pol theta ATPase activity, NADH oxidation-coupled enzymatic assay (ATPase NADH coupling: Standard Screening: hPolQ)
Assay type: biochemical
Conditions: Table 4; Pol theta (1-899) 5 nM, ATP, dT50 ssDNA

COc1nnc(NC(=O)c2cnc(C)cc2-c2cc(C(F)(F)F)ncc2OC)s1	≤ 200 nM
COc1cnc(Cl)cc1-c1cc(C)ncc1C(=O)Nc1nnc(O[C@H]2CC[C@@H](O)CC2)s1 (single isomer, unassigned)	≤ 200 nM
COc1cnc(Cl)cc1-c1cc(C)ncc1C(=O)Nc1nnc(OCC2CCOC2C)s1 (centres unmarked)	≤ 200 nM
COc1nnc(NC(=O)c2cnc(C)cc2-c2cc(Cl)ncc2OC(F)F)s1	≤ 200 nM

Given `COc1cnc(Cl)cc1-c1cc(C)ncc1C(=O)Nc1nnc(OCC(C)(C)C#N)s1` , state its recorded IC50.
≤ 200 nM

Do the same for `Cc1cc(-c2cc(Cl)ncc2OC(F)F)c(C(=O)Nc2nnc(OC3COC3)s2)cn1` please
≤ 200 nM

Do the same for `COc1nnc(NC(=O)c2cnc(C)cc2-c2cc(C)ncc2C)s1` please
200 to 500 nM

Do the same for `COc1nnc(NC(=O)c2cnc(C)cc2-c2c(Cl)cccc2OC(F)F)s1` please
200 to 500 nM

Do the same for `COc1nnc(NC(=O)c2cnc(C)cc2-c2cc3[nH]cnc3cc2OC)s1` please
1000 to 10000 nM

Do the same for `COc1cnc(Cl)cc1-c1cc(C)ncc1C(=O)Nc1nnc(OC2CCCC2)s1` please
≤ 200 nM
